# Test system: CD98
# method: Nutrient transporter (CD98) down-regulation
# Type: cell-based
# condition-details: 10 μM
Counter-ions that a name gives are not always drawn.
Assignment: determine reported inhibition at 10 µM for the given compounds.
One number for each entry, in %.

# compound, tested-system, inhibition at 10 µM, %
records = [
    ("CCCCCCCCc1ccc(C(=O)[C@@H]2CCCN2)cc1.Cl", "CD98", -4),
]

Please look at the items below and tell me inhibition at 10 µM for each one, in order.
1. CCCCCCCCc1ccc(CC(O)[C@@H]2C[C@@H](O)CN2)cc1 (stereo partly drawn)
2. CCCCCCCCc1ccc(CC(O)[C@H]2C[C@H](O)CN2)cc1.Cl (stereo partly drawn)
3. CCCCCCCCc1ccc(C(=O)[C@@H]2C[C@@H](O)CN2)cc1.Cl
4. CCCCCCCCc1ccc(CC[C@@H]2CCCN2)cc1 [Compound 9, hydrochloride]

# output
1: 62; 2: 62; 3: 9; 4: 63

# input Endpoint output: inhibition at 10 µM of CCCCCCCCc1ccc(C(=O)[C@H]2C[C@H](CO)CN2)cc1.Cl [Compound 22, hydrochloride] . Value?
# output 19

* * *

# Tested on: CD98
# method: Nutrient transporter (CD98) down-regulation
# Assay type: cell-based
# condition-details: 10 μM
Assignment: determine reported inhibition at 10 µM for the given compounds.
Answers are plain numbers, in %.

Worked set:
# compound, reading-unit, value-reported
measured = [
    ("CCCCCCCCc1ccc(C(=O)C[C@@H]2C[C@@H](O)CN2)cc1.Cl", "%", 46),
    ("CCCCCCCCc1ccc(CC(=O)[C@@H]2C[C@@H](OP(=O)(O)O)CN2)cc1.Cl", "%", 3),
    ("CCCCCCCCc1ccc(CC(=O)[C@H]2C[C@H](O)CN2)cc1.Cl", "%", 16),
    ("CCCCCCCCc1ccc(C(C[C@@H]2CCCN2)OC)cc1.Cl (single isomer, unassigned) [Compound 10, hydrochloride]", "%", 58),
]

Please turn your attention to the following entry.
# input For CD98, provide inhibition at 10 µM of `CCCCCCCCc1ccc(CC(=O)[C@@H]2C[C@@H](O)CN2)cc1.Cl` please.
# output 23

* * *

# Test system: cancer cells
# method: Cytotoxicity (IC50)
# Assay type: cell-based
Assignment: determine reported pIC50 for the given molecules.
One number for each entry, as −log10 of the molar value.

# molecule, pIC50
rows = [
    ("CCCCCCCCc1ccc(CC(O)[C@@H]2C[C@@H](O)CN2)cc1 (stereo partly drawn)", 5.52),
    ("CCCCCCCCc1ccc(C(=O)C[C@@H]2C[C@@H](O)CN2)cc1.Cl", 5.68),
    ("CCCCCCCCc1ccc(C(=O)C[C@@H]2CCCN2)cc1.Cl [Compound 8, hydrochloride]", 5.60),
    ("CCCCCCCCc1ccc(CC(=O)[C@H]2C[C@H](O)CN2)cc1.Cl", 4.77),
    ("CCCCCCCCc1ccc(CC(O)[C@H]2C[C@H](O)CN2)cc1.Cl (stereo partly drawn)", 5.74),
]

Please turn your attention to the following entry.
# input For cancer cells, provide pIC50 of `CCCCCCCCc1ccc(C(=O)[C@H]2C[C@H](O)CN2)cc1.Cl` please.
# output 4.82
